Biological target: serotonin (5-HT) reuptake (Rattus norvegicus)
Construct: synaptosomes are freshly isolated from areas of the rat brain; from tissue; host or cells: rat brain synaptosomes (P2 fraction)
Sequence (P31652 whole entry): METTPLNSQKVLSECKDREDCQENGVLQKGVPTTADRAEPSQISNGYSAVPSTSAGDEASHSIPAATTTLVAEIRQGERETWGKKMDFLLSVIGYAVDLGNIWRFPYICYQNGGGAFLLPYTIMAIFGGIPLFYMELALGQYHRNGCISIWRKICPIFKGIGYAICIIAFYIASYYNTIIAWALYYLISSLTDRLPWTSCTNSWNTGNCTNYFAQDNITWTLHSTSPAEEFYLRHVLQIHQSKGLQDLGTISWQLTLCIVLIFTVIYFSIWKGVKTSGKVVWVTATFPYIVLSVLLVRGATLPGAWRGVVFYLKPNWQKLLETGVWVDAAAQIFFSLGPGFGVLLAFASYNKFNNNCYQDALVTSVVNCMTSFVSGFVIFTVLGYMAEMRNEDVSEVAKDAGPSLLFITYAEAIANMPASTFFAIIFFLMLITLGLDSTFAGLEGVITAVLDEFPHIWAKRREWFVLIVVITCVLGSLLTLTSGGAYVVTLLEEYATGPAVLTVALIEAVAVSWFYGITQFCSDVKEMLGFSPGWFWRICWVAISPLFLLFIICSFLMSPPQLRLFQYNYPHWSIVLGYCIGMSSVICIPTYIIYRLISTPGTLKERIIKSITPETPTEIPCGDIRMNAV
Assay: Inhibition of serotonin (5HT) reuptake in synaptosomes from rat brain
Assay type: biochemical
Conditions: test concentration of 10 μM
MEASURED_PARAMETER: 5-HT (inhibition of reuptake of serotonin, % inhibition) (%)
Use % as the unit, but write only the number.

input: Using the record for CN(C)C(c1ccc(Cl)cc1)C1CCC(CCNC(=O)COCCN(C)S(=O)(=O)c2ccc(Cl)cc2)CC1 (stereo not shown) , report its 5-HT (inhibition of reuptake of serotonin, % inhibition).
output: 93

input: Quick one: 5-HT (inhibition of reuptake of serotonin, % inhibition) for COc1ccc(S(=O)(=O)N(C)CCOCC(=O)NCCC2CCC(C(c3ccc(F)cc3)N(C)C)CC2)cc1 (stereo not shown) ?
output: 88

input: What measured 5-HT (inhibition of reuptake of serotonin, % inhibition) goes with CN(C)C(c1ccc(Cl)cc1)C1CCC(CNC(=O)COCCN(C)S(=O)(=O)c2ccc(Cl)cc2)CC1 (stereo not shown) ?
output: 87

input: So what's the measured 5-HT (inhibition of reuptake of serotonin, % inhibition) for this one? CC(Oc1ccccc1)C(=O)NCCC1CCC(C(c2cccs2)N(C)C)CC1 (stereo not shown)
output: 61

input: Which 5-HT (inhibition of reuptake of serotonin, % inhibition) value belongs to CN(C)C(CCc1ccccc1)C1CCC(CNC(=O)COC2CCN(S(=O)(=O)c3ccccc3)CC2)CC1 (stereo not shown) ?
output: 94

input: Any idea what its 5-HT (inhibition of reuptake of serotonin, % inhibition) is? The compound is COc1cc(C)c(S(=O)(=O)N2CCC(OCC(=O)NCCC3CCC(C(c4cccc(F)c4)N(C)C)CC3)C2)c(C)c1 (stereo not shown)
output: 97

input: Please give the measured 5-HT (inhibition of reuptake of serotonin, % inhibition) for this compound: Cc1ccc(S(=O)(=O)N2CCC(OCC(=O)NCC3CCC(C(c4ccc(Cl)cc4)N(C)C)CC3)C2)cc1 (stereo not shown)
output: 88

====

Target: serotonin (5-HT) reuptake (Rattus norvegicus)
Construct: synaptosomes are freshly isolated from areas of the rat brain; from tissue; host or cells: rat brain synaptosomes (P2 fraction)
Test: Inhibition of serotonin (5HT) reuptake in synaptosomes from rat brain
Assay type: biochemical
Conditions: test concentration of 10 μM
Would you kindly list 5-HT (inhibition of reuptake of serotonin, % inhibition) for each of these compounds?
Quick note: give the figure in %, leave out the unit.

input: What value of measured 5-HT (inhibition of reuptake of serotonin, % inhibition) is listed for Cc1ccc(S(=O)(=O)N(C)CCOCC(=O)NCCC2CCC(C(c3cccc(F)c3)N(C)C)CC2)cc1 (centres unmarked) ?
output: 87

input: Fill in the blank: the reported 5-HT (inhibition of reuptake of serotonin, % inhibition) of CN(C)C(c1ccc(F)cc1)C1CCC(CCNC(=O)COC2CCN(S(=O)(=O)c3ccccc3)C2)CC1 (centres unmarked) is ____.
output: 89

input: # input compound: COc1cc(C)c(S(=O)(=O)N2CCN(CCOCC(=O)NCC3CCC(C(c4ccc(Cl)cc4)N(C)C)CC3)CC2)c(C)c1C (centres unmarked) ; wanted: its 5-HT (inhibition of reuptake of serotonin, % inhibition)
output: 95

input: Find the recorded 5-HT (inhibition of reuptake of serotonin, % inhibition) belonging to CN(C)C(c1cccc(F)c1)C1CCC(CNC(=O)COCCN(Cc2ccccc2)S(=O)(=O)c2ccccc2)CC1 (centres unmarked) and report it.
output: 96

input: # query: 5-HT (inhibition of reuptake of serotonin, % inhibition) of entry CN(C)C(c1ccc(F)cc1)C1CCC(NC(=O)COCCN(C)S(=O)(=O)c2ccc(Cl)cc2Cl)CC1 (centres unmarked)
output: 84

input: Query: 5-HT (inhibition of reuptake of serotonin, % inhibition); subject: CN(C)C(c1cccc(F)c1)C1CCC(CCNC(=O)COCC2CCCN2S(=O)(=O)c2ccc(Cl)c(Cl)c2)CC1 (centres unmarked)
output: 98

input: Look up 5-HT (inhibition of reuptake of serotonin, % inhibition) for this compound: Cc1cc(C)c(S(=O)(=O)N(C)CCOCC(=O)NC2CCC(C(c3ccccc3)N(C)C)CC2)c(C)c1 (centres unmarked)
output: 79

input: Recorded 5-HT (inhibition of reuptake of serotonin, % inhibition) for COc1ccc(S(=O)(=O)N2CCCCC2COCC(=O)NCC2CCC(C(c3ccc(F)cc3)N(C)C)CC2)cc1 (centres unmarked) , please?
output: 92

input: I would be grateful if you could share the reported 5-HT (inhibition of reuptake of serotonin, % inhibition) for CN(C)C(CCc1ccccc1)C1CCC(CNC(=O)COCCN(C)S(=O)(=O)c2ccc(OC(F)(F)F)cc2)CC1 (centres unmarked) .
output: 93

input: Can you look up the measured 5-HT (inhibition of reuptake of serotonin, % inhibition) of CN(C)C(c1ccc(F)cc1)C1CCC(NC(=O)COCCN2CCN(S(=O)(=O)c3ccccc3)CC2)CC1 (centres unmarked) for me?
output: 97

input: Using the record for COc1cc(C)c(S(=O)(=O)N(CCOCC(=O)NCC2CCC(C(CCc3ccccc3)N(C)C)CC2)Cc2ccccc2)c(C)c1C (centres unmarked) , report its 5-HT (inhibition of reuptake of serotonin, % inhibition).
output: 96

input: Requested read-out: 5-HT (inhibition of reuptake of serotonin, % inhibition). Entry: COc1cc(C)c(S(=O)(=O)N(CCOCC(=O)NCC2CCC(C(c3ccccc3)N(C)C)CC2)Cc2ccccc2)c(C)c1C (centres unmarked)
output: 89

input: # get_value(readout='5-HT (inhibition of reuptake of serotonin, % inhibition)', item= CN(C)C(c1cccc(F)c1)C1CCC(NC(=O)COC2CCN(S(=O)(=O)c3ccc(Cl)cc3)C2)CC1 (centres unmarked) )
output: 86

input: Which 5-HT (inhibition of reuptake of serotonin, % inhibition) reading was recorded for the compound COc1cc(C)c(S(=O)(=O)N(CCOCC(=O)NCC2CCC(C(c3ccc(F)cc3)N(C)C)CC2)Cc2ccccc2)c(C)c1 (centres unmarked) ?
output: 89
